assayed.system: PknB (Mycobacterium tuberculosis)
Construct: made in house
test.details: biochemical
Set-up: species or system M. tuberculosis
experimental.context: 3 nM PknB, 6 uM GarA, 3 μM ATP, 30 min; competitive tight-binding fit; several symbols in a cell = repeat determinations; read-out: Ki Values
pKi: −log10 of the molar value.
experimental.endpoint: pKi

Query block: Specify pKi for CC(C)(C)NS(=O)(=O)c1ccc(-c2ccc(N)c(Nc3cc(C4CC4)n[nH]3)n2)s1 [Compound 273] and stop.
Result block: 7.30 to 8.00

Query block: Specify pKi for CN1CCN(c2nccc(Nc3cc(C4CC4)[nH]n3)n2)CC1 [Compound 47] and stop.
Result block: < 5.40

Query block: Specify pKi for CC(C)(C)NS(=O)(=O)c1ccc(-c2ncc(NC=O)c(Nc3cc(C4CC4)[nH]n3)n2)s1 [Compound 253] and stop.
Result block: 6.30 to 7.00

Query block: Specify pKi for CC(=O)NCCNS(=O)(=O)c1cccc(-c2ncc(Cl)c(Nc3cc(C4CC4)[nH]n3)n2)c1 [Compound 96] and stop.
Result block: 7.30 to 8.00

Query block: Specify pKi for CC(C)(C)c1cc(Nc2nc(-c3ccc(S(N)(=O)=O)s3)ncc2Cl)n[nH]1 [Compound 236] and stop.
Result block: 6.30 to 7.00

Query block: Specify pKi for NS(=O)(=O)c1ccc(-c2ncc(Cl)c(Nc3cc(-c4ccco4)[nH]n3)n2)s1 [Compound 247] and stop.
Result block: 6.30 to 7.00

Query block: Specify pKi for C#Cc1cnc(-c2ccc(C(=C)C)s2)nc1Nc1cc(C2CC2)n[nH]1 [Compound 119] and stop.
Result block: 7.30 to 8.00

Query block: Specify pKi for CC(=O)c1ccc(-c2ncc(Cl)c(Nc3cc(C4CC4)[nH]n3)n2)o1 [Compound 288] and stop.
Result block: 6.30 to 7.00

###

Assign Ki to each entry below.
assayed.system: PknB (Mycobacterium tuberculosis, UniProt P9WI81)
Construct: made in house
Sequence (P9WI81 whole entry): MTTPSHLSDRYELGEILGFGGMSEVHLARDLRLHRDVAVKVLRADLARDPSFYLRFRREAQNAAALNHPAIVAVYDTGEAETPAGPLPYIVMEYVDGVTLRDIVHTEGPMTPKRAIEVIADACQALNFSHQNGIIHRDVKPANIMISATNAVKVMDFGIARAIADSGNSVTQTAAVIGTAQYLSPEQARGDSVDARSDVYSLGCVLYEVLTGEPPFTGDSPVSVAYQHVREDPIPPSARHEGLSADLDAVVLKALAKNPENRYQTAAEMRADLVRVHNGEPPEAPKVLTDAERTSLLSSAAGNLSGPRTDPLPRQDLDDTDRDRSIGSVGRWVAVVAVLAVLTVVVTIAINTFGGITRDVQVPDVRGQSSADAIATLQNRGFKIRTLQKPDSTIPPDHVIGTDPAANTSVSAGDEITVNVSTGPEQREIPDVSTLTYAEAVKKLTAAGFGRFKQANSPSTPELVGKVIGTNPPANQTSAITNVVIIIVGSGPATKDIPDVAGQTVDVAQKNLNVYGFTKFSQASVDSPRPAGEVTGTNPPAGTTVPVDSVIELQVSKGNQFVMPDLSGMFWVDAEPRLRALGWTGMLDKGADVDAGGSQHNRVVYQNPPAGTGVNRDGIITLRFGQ
test.details: biochemical
Set-up: species or system M. tuberculosis
experimental.context: 3 nM PknB, 6 uM GarA, 3 μM ATP, 30 min; competitive tight-binding fit; several symbols in a cell = repeat determinations; read-out: Ki Values

Query block: Answer with Ki of NC(=O)c1ncc(Cl)c(Nc2cc(C3CC3)[nH]n2)n1 [Compound 303] measured for PknB (Mycobacterium tuberculosis, UniProt P9WI81).
Result block: 2000 to 4000 nM

Query block: Answer with Ki of C#Cc1cnc(-c2ccc(C(O)CCOC(C)=O)s2)nc1Nc1cc(C2CC2)[nH]n1 (centres unmarked) [Compound 243] measured for PknB (Mycobacterium tuberculosis, UniProt P9WI81).
Result block: 10 to 50 nM

Query block: Answer with Ki of Cc1cnc(-c2ccc(CO)s2)nc1Nc1cc(C2CC2)[nH]n1 [Compound 36] measured for PknB (Mycobacterium tuberculosis, UniProt P9WI81).
Result block: 50 to 100 nM

Query block: Answer with Ki of C#Cc1cnc(-c2cccc(S(N)(=O)=O)c2)nc1Nc1cc(C2CC2)[nH]n1 [Compound 110] measured for PknB (Mycobacterium tuberculosis, UniProt P9WI81).
Result block: 10 to 50 nM

Query block: Answer with Ki of NC(=O)c1cccc(Nc2nccc(Nc3cc(C4CC4)[nH]n3)n2)c1 [Compound 125] measured for PknB (Mycobacterium tuberculosis, UniProt P9WI81).
Result block: 500 to 1000 nM

The measured values listed here are drawn from patent US20110053916A1.
